A compilation of IC50 values for UniProt:P09874 from the published literature.

| SMILES DATA | IC50 |
| --- | --- |
| N#Cc1cnn2c1[nH]c1cc(F)cc(C(N)=O)c12 | 1 to 100 nM |
| Cc1ccc2c(=O)[nH]c(N3CCN(c4ccccc4F)CC3)cn12 | 2740 nM |
| Cc1cnc(C(=O)N2CCN(C(=O)c3cc(Cn4c(=O)[nH]c(=O)c5ccccc54)ccc3F)CC2)cn1 | 0.1 to 10 nM |
| Cc1nc(C)c(C(=O)N2CCN(C(=O)c3cc(Cn4c(=O)[nH]c(=O)c5ccccc54)ccc3F)CC2)o1 | 0.1 to 10 nM |
| CNC(=O)c1ccc(N2CCN([C@H]3C=C(c4nc5c(c(=O)[nH]4)CC4(CC5)CC4)CC3)CC2)c(Cl)c1 | 1 to 500 nM |
| CCn1ccc2c(=O)[nH]c(-c3ccc(C(F)(F)F)cc3)cc21 | > 50000 nM |
| CN1CCC(c2cnn3c2[nH]c2cc(F)cc(C(N)=O)c23)CC1 | 1 to 100 nM |
| NC(=O)c1cc(F)cc2[nH]c3c(C4CCOCC4)cnn3c12 | 1 to 100 nM |
